Listed below: log10 IC50 values for each entry.
Target: recombinant human ASK1 protein (Homo sapiens (Human), UniProt Q99683)
Sequence (Q99683 whole entry): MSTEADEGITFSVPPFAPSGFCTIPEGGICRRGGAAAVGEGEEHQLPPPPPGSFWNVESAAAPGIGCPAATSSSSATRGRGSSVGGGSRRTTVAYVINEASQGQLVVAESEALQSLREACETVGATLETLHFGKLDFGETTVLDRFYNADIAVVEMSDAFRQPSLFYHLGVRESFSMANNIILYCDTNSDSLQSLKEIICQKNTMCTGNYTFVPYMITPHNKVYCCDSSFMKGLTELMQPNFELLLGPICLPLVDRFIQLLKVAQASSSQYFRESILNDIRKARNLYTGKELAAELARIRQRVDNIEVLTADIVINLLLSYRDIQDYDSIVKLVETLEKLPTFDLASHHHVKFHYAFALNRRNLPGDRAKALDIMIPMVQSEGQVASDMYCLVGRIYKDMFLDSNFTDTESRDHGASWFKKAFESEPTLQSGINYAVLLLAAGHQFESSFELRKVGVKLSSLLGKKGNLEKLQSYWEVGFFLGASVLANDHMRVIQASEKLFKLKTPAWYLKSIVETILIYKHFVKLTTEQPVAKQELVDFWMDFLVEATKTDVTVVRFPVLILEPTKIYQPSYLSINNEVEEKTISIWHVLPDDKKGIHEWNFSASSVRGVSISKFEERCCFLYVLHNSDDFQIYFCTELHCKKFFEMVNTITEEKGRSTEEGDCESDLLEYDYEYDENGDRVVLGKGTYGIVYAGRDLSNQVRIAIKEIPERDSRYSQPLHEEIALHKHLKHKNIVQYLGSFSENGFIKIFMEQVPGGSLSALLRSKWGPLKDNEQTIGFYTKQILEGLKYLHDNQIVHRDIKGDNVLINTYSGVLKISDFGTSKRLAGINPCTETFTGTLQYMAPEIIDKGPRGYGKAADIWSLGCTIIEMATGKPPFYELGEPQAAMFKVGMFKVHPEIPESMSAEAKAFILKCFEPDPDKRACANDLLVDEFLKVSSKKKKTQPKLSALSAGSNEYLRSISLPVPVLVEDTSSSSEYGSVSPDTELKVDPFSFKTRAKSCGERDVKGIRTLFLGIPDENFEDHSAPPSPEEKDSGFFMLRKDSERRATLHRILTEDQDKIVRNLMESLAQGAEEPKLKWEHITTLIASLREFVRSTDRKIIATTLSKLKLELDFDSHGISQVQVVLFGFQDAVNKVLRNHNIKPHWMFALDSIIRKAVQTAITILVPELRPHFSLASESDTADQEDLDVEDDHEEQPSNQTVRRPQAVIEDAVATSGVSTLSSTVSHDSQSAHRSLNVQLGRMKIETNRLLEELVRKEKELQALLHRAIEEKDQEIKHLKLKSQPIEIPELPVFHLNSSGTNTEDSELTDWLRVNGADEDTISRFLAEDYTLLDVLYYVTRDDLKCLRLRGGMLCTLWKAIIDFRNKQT
Test: ASK1 kinase activity inhibition assay (radiometric 33P incorporation into MBP)
Format: biochemical
Settings: Table 3; 20 μM MBP, 10 μM 33P-ATP
Base-10 log of IC50, unit nM.

Look over these answered cases.
In [3]: df
Out[3]:
                               entry_smiles  reported_measurement
0  CC(C)n1cnnc1-c1cccc(N2Cc3ccc(-c4cccc(C5(C(=O)O)CC5)c4)cc3C2=O)n1                  0.86
1  CC(C)n1cnnc1-c1cccc(N2Cc3ccc(-c4cccc(C(=O)O)c4)cc3C2=O)n1                  0.72
2  CC(C)n1cnnc1-c1cccc(N2Cc3ccc(-c4cc(F)cc(C(=O)O)c4F)cc3C2=O)n1                  0.67

In plain terms, CC(C)n1cnnc1-c1cccc(N2Cc3ccc(-c4cccc(CCC(=O)O)c4)cc3C2=O)n1 has a documented log10 IC50 of 0.72

====

Target: human OATP1B3 transporter (Homo sapiens (Human))
Sequence (Q9NPD5 whole entry): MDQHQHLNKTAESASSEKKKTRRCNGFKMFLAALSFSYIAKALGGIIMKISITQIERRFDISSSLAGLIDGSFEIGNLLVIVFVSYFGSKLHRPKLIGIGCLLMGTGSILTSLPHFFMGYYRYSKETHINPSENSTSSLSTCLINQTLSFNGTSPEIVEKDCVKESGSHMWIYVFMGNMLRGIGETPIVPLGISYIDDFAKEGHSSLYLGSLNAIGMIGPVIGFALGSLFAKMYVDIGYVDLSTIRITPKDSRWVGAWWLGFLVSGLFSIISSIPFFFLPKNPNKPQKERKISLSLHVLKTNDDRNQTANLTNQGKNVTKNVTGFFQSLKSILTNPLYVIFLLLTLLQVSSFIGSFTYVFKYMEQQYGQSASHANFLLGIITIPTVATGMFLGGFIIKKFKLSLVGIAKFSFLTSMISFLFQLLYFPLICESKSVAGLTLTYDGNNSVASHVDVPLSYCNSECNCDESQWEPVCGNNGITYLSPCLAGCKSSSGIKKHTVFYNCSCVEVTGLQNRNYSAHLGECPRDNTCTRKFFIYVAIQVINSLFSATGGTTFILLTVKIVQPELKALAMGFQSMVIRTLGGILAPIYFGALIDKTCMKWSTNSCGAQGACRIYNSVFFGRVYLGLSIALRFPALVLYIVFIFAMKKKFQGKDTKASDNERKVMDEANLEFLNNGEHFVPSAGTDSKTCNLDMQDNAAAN
Assay: Transporter mediated cellular uptake, OATP1B3-expressing HEK293
Type: in vitro ADME
Details: HEK293 stably expressing human OATP1B3, 37° C., 5 minutes
metric_name: OATP1B3 Uptake (Percent of no transporter control cell)
Number first, unit second: that is the form wanted.

>>> print(df.to_string())
                                   compound                            assayed_system  reported_measurement
0  CC(C)n1cnnc1-c1cccc(N2Cc3ccc(-c4cccc(C(C)(C)C(=O)O)c4)cc3C2=O)n1 [Compound 102]  human OATP1B3 transporter (Homo sapiens (Human))                  632%
1  C[C@]12CC[C@@H]3c4ccc(O)cc4CC[C@H]3[C@@H]1CC[C@@H]2O [Estradiol, reference compound]  human OATP1B3 transporter (Homo sapiens (Human))                  490%
2  CC(C)n1cnnc1-c1cccc(N2Cc3ccc(-c4cccc(C(=O)O)c4)cc3C2=O)n1 [Compound 1]  human OATP1B3 transporter (Homo sapiens (Human))                  399%

Now take the following compound into account.
Record CC(C)n1cnnc1-c1cccc(N2Cc3ccc(-c4ccc(C(C)(C)C(=O)O)cc4)cc3C2=O)n1 [Compound 39] , field OATP1B3 Uptake (Percent of no transporter control cell): 316%

====

Reported values of IC50 for individual entries
Molecular target: recombinant human ASK1 protein (Homo sapiens (Human))
Assay: ASK1 kinase activity inhibition assay (radiometric 33P incorporation into MBP)
Format: biochemical
Details: Table 3; 20 μM MBP, 10 μM 33P-ATP
Write the number in nM without appending the unit.

Worked set:
In [3]: df
Out[3]:
                                   molecule  unit  reported_measurement
0  CC(C)n1cnnc1-c1cccc(N2Cc3ccc(-c4cccc(C(=O)O)c4O)cc3C2=O)n1    nM                   3.4
1  O=C(O)C1CCCN(c2ccc3c(c2)C(=O)N(c2cccc(-c4nncn4C4CC4)n2)C3)C1 (stereo not shown)    nM                  21.7
2  CC(C)n1cnnc1-c1cccc(N2Cc3ccc(-c4ccc5c(C(=O)O)cnn5c4)cc3C2=O)n1    nM                   3.9

Next, consider the following molecule.
IC50 for CC(C)n1cnnc1-c1cccc(N2Cc3ccc(-c4cc(C(=O)O)ccc4CO)cc3C2=O)n1 is 5.3
